// provenance: the supplement of paper PMC4371806

Readings of plate-normalized OD600 growth for the listed compounds
System: Escherichia coli BW25113
Test: plate-normalized OD600 growth (mean of duplicates) (OD600 (normalized)); higher = more growth (less inhibition)
Conditions: temperature: 15°C; 48 h; 10 µM
Over roughly 1,600 compounds, “plate-normalized OD600 growth (mean of duplicates)” has its median near 0.31; the lowest 2% begin near 0.23. The full list was thinned out, with the lowest values kept by preference.
Enter a number only.

Solved cases below.
| compound | plate-normalized OD600 growth |
| --- | --- |
| CC(=O)c1c(C)[nH]n(-c2ccccc2)c1=O | 0.252 |
| Cc1n[nH]c(=O)c2cc3c(C)n[nH]c(=O)c3cc12 | 0.259 |
| COc1cc2c(cc1OC)C(c1cc(OC)c(OC)c(OC)c1)N(C)CC2 (configuration not stated) | 0.244 |
| Cc1[nH]n(-c2ccccc2)c(=O)c1C=O | 0.224 |
| Cc1ccc(C2C(C#N)=C(N)Oc3n[nH]c(C)c32)s1 (configuration not stated) | 0.246 |
| Cc1cc(NO)nc(-c2ccc(Br)cc2)n1 | 0.221 |
| [O-][n+]1onc2c(-c3ccccc3)nnc(-c3ccccc3)c21 | 0.254 |
| Cc1nn(-c2ccccc2)c(N2CCCCC2)c1C=O | 0.266 |
| Fc1ccc(CN2CCN(c3ccccn3)CC2)c(F)c1 | 0.244 |
| Cc1ccc(OCCCNC(C)(C)C)cc1 | 0.244 |

Identify the measured plate-normalized OD600 growth of N#CC1=C(N)N2C(=C(C#N)C1c1c(F)cccc1Cl)Sc1ccccc12 (configuration not stated) for Escherichia coli BW25113. 0.27

What about this compound? Cc1cc(C)c(S(=O)(=O)Nc2cc(C)on2)c(C)c1 0.243
